These data points were gathered from ChEMBL document CHEMBL4145476.

- measurement target: Neuromedin-U receptor 2 (Homo sapiens)
- Sequence (Q9GZQ4 whole entry): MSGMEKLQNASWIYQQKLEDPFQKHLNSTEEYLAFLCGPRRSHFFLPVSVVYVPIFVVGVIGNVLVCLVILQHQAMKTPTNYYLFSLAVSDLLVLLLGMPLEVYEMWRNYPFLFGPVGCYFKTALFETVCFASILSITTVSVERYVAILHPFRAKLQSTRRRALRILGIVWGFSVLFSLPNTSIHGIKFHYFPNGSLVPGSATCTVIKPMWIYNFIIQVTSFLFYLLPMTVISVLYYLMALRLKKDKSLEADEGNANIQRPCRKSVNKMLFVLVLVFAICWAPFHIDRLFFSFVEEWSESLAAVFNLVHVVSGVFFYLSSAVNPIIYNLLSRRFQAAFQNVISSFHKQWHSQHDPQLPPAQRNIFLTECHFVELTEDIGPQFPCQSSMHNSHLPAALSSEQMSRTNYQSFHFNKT
- experimental protocol: Agonist activity at human NMUR2 expressed in HEK293 cells assessed as induction of IP3 levels at 10^-5 M using myo-[2-3H(N)]-inositol after 60 mins by SPA-based topcount assay relative to NMU-8
- Format: functional, cell-based
Square brackets hold non-standard residues; d marks the D form. Peptide text beside a SMILES is read from it. Gly(N-4-hydroxybenzyl) = O=C(O)CNCc1ccc(O)cc1; Oic = O=C(O)[C@@H]1C[C@@H]2CCCC[C@@H]2N1; 2Nal = N[C@@H](Cc1ccc2ccccc2c1)C(=O)O
readout kind: Emax (%)
Numeric answer only, unit % assumed.

I would be grateful if you could share the reported Emax for CC(=O)N[C@@H](Cc1ccc(O)cc1)C(=O)N[C@@H](Cc1ccccc1)C(=O)N[C@@H](CC(C)C)C(=O)N[C@@H](Cc1ccc2ccccc2c1)C(=O)N[C@@H](CCCNC(=N)N)C(=O)N1CCC[C@H]1C(=O)N[C@@H](CCCNC(=N)N)C(=O)N[C@@H](CC(N)=O)C(N)=O (Ac-YFL[2Nal]RPRN-NH2) .
96.2

Okay, and CC(C)C[C@H](NC(=O)[C@H](Cc1ccccc1)NC(=O)[C@@H](N)Cc1ccc(O)cc1)C(=O)N(CC(=O)N[C@@H](CCCNC(=N)N)C(=O)N1CCC[C@H]1C(=O)N[C@@H](CCCNC(=N)N)C(=O)N[C@@H](CC(N)=O)C(N)=O)Cc1ccc(O)cc1 (H-YFL[Gly(N-4-hydroxybenzyl)]RPRN-NH2) ?
69.4

Same lookup for CC(=O)N[C@@H](Cc1ccc(O)cc1)C(=O)N[C@@H](Cc1ccccc1)C(=O)N[C@@H](CC(C)C)C(=O)N[C@@H](Cc1ccccc1)C(=O)N[C@@H](CCCNC(=N)N)C(=O)N1[C@H](C(=O)N[C@@H](CCCNC(=N)N)C(=O)N[C@@H](CC(N)=O)C(N)=O)C[C@@H]2CCCC[C@@H]21 (Ac-YFLFR[Oic]RN-NH2) , please.
84.3
